Experiment: Effect on the survival of mice bearing ascites tumor in extremes treated at the dose of 140 mg/kg
Type: functional, Mus musculus
assay metric: Extremes treated
// print number alone

[[record]]
compound = "O=C(C#Cc1cnc(O)nc1O)c1ccccc1Cl"
recorded_number = 18

[[record]]
compound = "COc1ccc(C(=O)C#Cc2cnc(O)nc2O)cc1"
recorded_number = 15

[[record]]
compound = "O=c1[nH]cc(F)c(=O)[nH]1 [FLUOROURACIL]"
recorded_number = 14

[[record]]
compound = "Cc1ccc(C(=O)C#Cc2cnc(O)nc2O)cc1"
recorded_number = 35


From here, focus on the item given below.
Given the compound O=C(C#Cc1cnc(O)nc1O)c1ccccc1 , what is its reported Extremes treated?
39

---

System: CCRF-CEM
Experiment: Effect on CCRF-CEM cells in culture
Type: functional, cell-based
Settings: Homo sapiens
assay metric: pIC50
Would you please state pIC50, meaning minus log10 of the concentration in mol/L, as a bare number?

Given the compound O=c1[nH]cc(F)c(=O)[nH]1 [FLUOROURACIL] , what is its reported pIC50?
5.70

---

Tested on: L1210
Assay: Effect on L1210/0 cells in culture
Assay type: functional, cell-based
Details: Mus musculus
assay metric: pIC50
Would you please state pIC50, meaning minus log10 of the concentration in mol/L, as a bare number?

Given the molecule O=c1[nH]cc(F)c(=O)[nH]1 [FLUOROURACIL] , what is its reported pIC50?
6.52
